Biological target: MDM2 (Homo sapiens, UniProt Q00987)
Sequence (Q00987 whole entry): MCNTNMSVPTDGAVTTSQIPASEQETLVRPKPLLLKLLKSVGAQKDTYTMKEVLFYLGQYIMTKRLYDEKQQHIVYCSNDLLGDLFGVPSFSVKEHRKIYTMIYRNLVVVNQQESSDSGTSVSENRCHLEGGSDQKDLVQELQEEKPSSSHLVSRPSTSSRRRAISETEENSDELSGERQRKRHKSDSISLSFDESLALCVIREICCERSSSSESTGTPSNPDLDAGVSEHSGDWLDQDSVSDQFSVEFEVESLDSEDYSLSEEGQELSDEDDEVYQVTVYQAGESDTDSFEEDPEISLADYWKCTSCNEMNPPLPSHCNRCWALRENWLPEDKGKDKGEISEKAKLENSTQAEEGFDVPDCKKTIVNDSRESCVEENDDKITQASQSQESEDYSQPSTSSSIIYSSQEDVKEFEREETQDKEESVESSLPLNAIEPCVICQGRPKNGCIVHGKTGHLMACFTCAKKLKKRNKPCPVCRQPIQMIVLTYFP
Experiment: MDM2 binding screen of Libraries 3 and 4: displacement of fluorescent probe F-M8 at 750 nM macrocycle
Conditions: Panel b, Library 3: 63 scaffolds combinatorially acylated with 15 carboxylic acids at 30 picomole scale; displacement of fluorescent peptide probe; macrocycle 750 nM
MEASUREMENT_TYPE: fraction of fluorescent probe displaced

Please review the entries below; each comes with its answer.
>>> measured_number("O=C1CCSSCCNC(=O)C(Cc2c[nH]c3ccccc23)NC(=O)CN(CCNC(=O)C2CC2c2ccccc2)C(=O)C2(CC2)CN1 (stereo not shown)")
-0.015
>>> measured_number("CN1C(=O)[C@@H](CNC(=O)c2cccc(Oc3ccccc3)c2)NC(=O)C2(CC2)CNC(=O)CCSSCCNC(=O)[C@@H]1Cc1c[nH]c2ccccc12")
0.00133
>>> measured_number("O=C1CN(CCNC(=O)c2cccc(Oc3ccccc3)c2)C(=O)[C@H]2CCCN(C2)C(=O)CCSSCCNC(=O)[C@H](Cc2c[nH]c3ccccc23)N1")
0.015
>>> measured_number("CC(Oc1cccc(Cl)c1)C(=O)NCC1NC(=O)C2CCCN(C2)C(=O)CCSSCCNC(=O)C(Cc2c[nH]c3ccccc23)N(C)C1=O (mixture of isomers)")
0.00133
>>> measured_number("O=C(CCS(=O)(=O)c1ccccc1)NC[C@@H]1NC(=O)C2(CC2)CNC(=O)CCSSCCNC(=O)[C@@H](Cc2c[nH]c3ccccc23)NC1=O")
0.035

A. Cn1cc(C[C@@H]2NC(=O)CN(CCNC(=O)/C=C/c3ccc(OCc4ccccc4)cc3)C(=O)C3(CC3)CNC(=O)CCSSCCNC2=O)c2ccccc21
B. O=C(NC[C@H]1NC(=O)[C@H]2CCCN(C2)C(=O)CCSSCCNC(=O)[C@H](Cc2c[nH]c3cc(Cl)ccc23)NC1=O)C1COc2ccccc2O1 (stereo partly shown)
Asked: I'd appreciate it if you could identify which of A and B has the greater fraction of fluorescent probe displaced. Provide the label of your selected option as the answer.
Given back: A
(A: 0.015, B: -0.012)

P. O=C1CCSSCCNC(=O)[C@H](Cc2ccc3ccccc3c2)NC(=O)[C@@H](CNC(=O)c2ccc(Cl)s2)NC(=O)C2(CC2)CN1
Q. CC(Oc1cccc(Cl)c1)C(=O)NC[C@H]1NC(=O)C2(CC2)CNC(=O)CCSSCCNC(=O)[C@H](Cc2cccc3ccccc23)NC1=O (stereo partly shown)
R. Cn1cc(C[C@@H]2NC(=O)CN(CCNC(=O)/C=C/c3ccc4ccccc4c3)C(=O)C3(CC3)CNC(=O)CCSSCCNC2=O)c2ccccc21
Asked: # sort list by recorded fraction of fluorescent probe displaced, greatest to least Write out the labels following the order that was asked for.
Given back: R, P, Q
(R: 0.028, P: 0.00133, Q: -0.00533)
